What Ki was measured for each of the following?
Target: 5-HT1A receptor (Homo sapiens, UniProt P08908)
Sequence (P08908 1-422): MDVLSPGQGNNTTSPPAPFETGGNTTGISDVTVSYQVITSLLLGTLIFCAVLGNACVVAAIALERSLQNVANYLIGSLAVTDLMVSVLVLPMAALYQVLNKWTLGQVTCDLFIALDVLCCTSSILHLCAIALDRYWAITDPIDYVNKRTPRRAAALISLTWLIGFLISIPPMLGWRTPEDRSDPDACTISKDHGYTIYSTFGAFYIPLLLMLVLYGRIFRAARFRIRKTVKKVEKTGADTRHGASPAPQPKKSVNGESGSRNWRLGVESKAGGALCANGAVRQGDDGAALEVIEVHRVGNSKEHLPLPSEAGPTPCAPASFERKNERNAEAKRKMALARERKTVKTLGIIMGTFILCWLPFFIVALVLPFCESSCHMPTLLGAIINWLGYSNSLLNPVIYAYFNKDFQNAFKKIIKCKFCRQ
Experiment: Radioligand binding, 5-HT1A ([3H]-8-OH-DPAT displacement)
Conditions: read-out: Ki 5-HT1A; cloned human receptor in HEK293; three independent experiments, SEM ± 22%
Enter your answer as a number in nM; do not include the unit.

Return Ki measured with 5-HT1A receptor (Homo sapiens, UniProt P08908) given this compound: Cc1cccc(S(=O)(=O)n2ccc3c(N4CCNCC4)nc4ccccc4c32)c1 [Compound 39] 760

Short answer please: Ki, 5-HT1A receptor (Homo sapiens, UniProt P08908), entry O=S(=O)(c1cccc(F)c1)n1ccc2c(N3CCNCC3)nc3ccccc3c21 [Compound 30] 437

Field: Ki (5-HT1A receptor (Homo sapiens, UniProt P08908)). Entry: O=S(=O)(c1cccc(Cl)c1)n1ccc2c(N3CCNCC3)nc3ccccc3c21 [Compound 29] 773

# value lookup — system 5-HT1A receptor (Homo sapiens, UniProt P08908), readout Ki, item CN1CCN(c2nc3ccccc3c3c2ccn3S(=O)(=O)c2cccc3cccnc23)CC1 [Compound 59] 208
